Provenance of the data: ChEMBL document CHEMBL5724806

# method-notes: The drug is tested on Capnocytophaga ochracea strain: DSM7271 for biotransformation under anaerobic condition. The drug concentrations were measured over 6 timepoints collected between 0 and 12 hours of incubation by liquid-chromatography-coupled mass spectrometry (LC–MS)
# Assay type: ADME
# Parameters: dose 5 uM, timepoint 0, 1.5, 3, 6, 9, 12 hours
# setup-conditions: 5 µM
reported-endpoint: Bacterial Biotransformation

CCOC(=O)[C@H](CCc1ccccc1)N[C@@H](C)C(=O)N1[C@H](C(=O)O)C[C@@H]2CCC[C@@H]21 :: Compound NOT metabolized
CO[C@H]1C[C@@H]2CC[C@@H](C)[C@@](O)(O2)C(=O)C(=O)N2CCCC[C@H]2C(=O)O[C@H]([C@H](C)C[C@@H]2CC[C@@H](OCCO)[C@H](OC)C2)CC(=O)[C@H](C)/C=C(\C)[C@@H](O)[C@@H](OC)C(=O)[C@H](C)C[C@H](C)/C=C/C=C/C=C/1C :: Compound NOT metabolized
Cn1cnc([N+](=O)[O-])c1Sc1ncnc2nc[nH]c12 :: Compound NOT metabolized
NS(=O)(=O)c1cc(C(=O)O)c(NCc2ccco2)cc1Cl [FUROSEMIDE] :: Compound NOT metabolized
C[C@H]1C[C@@H]2[C@H]([C@@H](O)C[C@@]3(C)[C@H]2CC[C@]3(O)C(=O)CO)[C@@]2(C)C=CC(=O)C=C12 :: Compound NOT metabolized
C[C@@H](NCCCc1cccc(C(F)(F)F)c1)c1cccc2ccccc12 :: Compound NOT metabolized
CNC(=C[N+](=O)[O-])NCCSCc1ccc(CN(C)C)o1 :: Compound NOT metabolized
C=CC[C@@H]1/C=C(\C)C[C@H](C)C[C@H](OC)[C@H]2O[C@@](O)(C(=O)C(=O)N3CCCC[C@H]3C(=O)O[C@H](/C(C)=C/[C@@H]3CC[C@@H](O)[C@H](OC)C3)[C@H](C)[C@@H](O)CC1=O)[C@H](C)C[C@@H]2OC.O :: Compound NOT metabolized
CCOC(=O)C1=C(COCCN)NC(C)=C(C(=O)OC)C1c1ccccc1Cl (stereo not drawn) :: Compound NOT metabolized
C[C@@H]1C[C@H]2[C@@H]3CCC4=CC(=O)C=C[C@]4(C)[C@@]3(F)[C@@H](O)C[C@]2(C)[C@@]1(O)C(=O)CO :: Compound NOT metabolized
CC(C)NCC(O)COc1ccc(CC(N)=O)cc1 (stereo not drawn) :: Compound NOT metabolized
COc1ccc([C@@H]2Sc3ccccc3N(CCN(C)C)C(=O)[C@@H]2OC(C)=O)cc1 :: Compound NOT metabolized

---

# method-notes: The drug is tested on the gut metagenome community of A-09 with ENA study accession number: PRJEB31790 for biotransformation under microaerobic condition. The drug concentrations were measured over 7 timepoints collected between 0 and 12 hours of incubation by liquid-chromatography-coupled mass spectrometry (LC–MS)
# Assay type: ADME
# Design: dose 5 uM, timepoint 0, 0.75, 1.5, 3, 6, 9, 12 hours
# setup-conditions: 5 µM
reported-endpoint: Bacterial Biotransformation

NS(=O)(=O)c1cc(C(=O)O)c(NCc2ccco2)cc1Cl [FUROSEMIDE] :: Compound NOT metabolized
CNC(=C[N+](=O)[O-])NCCSCc1ccc(CN(C)C)o1 :: Compound metabolized
CCCC1O[C@@H]2C[C@H]3[C@@H]4CCC5=CC(=O)C=C[C@]5(C)[C@H]4[C@@H](O)C[C@]3(C)[C@]2(C(=O)CO)O1 (some centres not stated) [BUDESONIDE] :: Compound metabolized
CCOc1nc2cccc(C(=O)O)c2n1Cc1ccc(-c2ccccc2-c2nnn[nH]2)cc1 :: Compound NOT metabolized
CCOC(=O)C1=C(COCCN)NC(C)=C(C(=O)OC)C1c1ccccc1Cl (configuration not stated) :: Compound NOT metabolized
CN(Cc1cnc2nc(N)nc(N)c2n1)c1ccc(C(=O)N[C@@H](CCC(=O)O)C(=O)O)cc1 [METHOTREXATE] :: Compound metabolized
Cn1cnc([N+](=O)[O-])c1Sc1ncnc2nc[nH]c12 :: Compound metabolized
CO[C@H]1C[C@@H]2CC[C@@H](C)[C@@](O)(O2)C(=O)C(=O)N2CCCC[C@H]2C(=O)O[C@H]([C@H](C)C[C@@H]2CC[C@@H](O)[C@H](OC)C2)CC(=O)[C@H](C)/C=C(\C)[C@@H](O)[C@@H](OC)C(=O)[C@H](C)C[C@H](C)/C=C/C=C/C=C/1C :: Compound metabolized
C[C@@H](NCCCc1cccc(C(F)(F)F)c1)c1cccc2ccccc12 :: Compound NOT metabolized
C[C@]12CCC(=O)C=C1CC[C@@H]1[C@@H]2C(=O)C[C@@]2(C)[C@H]1CC[C@]2(O)C(=O)CO :: Compound metabolized
C[C@@H]1C[C@H]2[C@@H]3CCC4=CC(=O)C=C[C@]4(C)[C@@]3(F)[C@@H](O)C[C@]2(C)[C@@]1(O)C(=O)CO :: Compound metabolized
C[C@]12CCC(=O)C=C1CC[C@@H]1[C@@H]2[C@@H](O)C[C@@]2(C)[C@H]1CC[C@]2(O)C(=O)CO [HYDROCORTISONE] :: Compound metabolized

---

# method-notes: The drug is tested on Bifidobacterium longum strain: DSM20088 for biotransformation under microaerobic condition. The drug concentrations were measured over 6 timepoints collected between 0 and 12 hours of incubation by liquid-chromatography-coupled mass spectrometry (LC–MS)
# Assay type: ADME
# Set-up: dose 5 uM, timepoint 0, 1.5, 3, 6, 9, 12 hours
# setup-conditions: 5 µM
reported-endpoint: Bacterial Biotransformation

C[C@]12CCC(=O)C=C1CC[C@@H]1[C@@H]2C(=O)C[C@@]2(C)[C@H]1CC[C@]2(O)C(=O)CO :: Compound NOT metabolized
C[C@]12C=CC(=O)C=C1CC[C@@H]1[C@@H]2C(=O)C[C@@]2(C)[C@H]1CC[C@]2(O)C(=O)CO :: Compound NOT metabolized
CO[C@H]1C[C@@H]2CC[C@@H](C)[C@@](O)(O2)C(=O)C(=O)N2CCCC[C@H]2C(=O)O[C@H]([C@H](C)C[C@@H]2CC[C@@H](OCCO)[C@H](OC)C2)CC(=O)[C@H](C)/C=C(\C)[C@@H](O)[C@@H](OC)C(=O)[C@H](C)C[C@H](C)/C=C/C=C/C=C/1C :: Compound NOT metabolized

---

# method-notes: The drug is tested on the gut metagenome community of A-01 with ENA study accession number: PRJEB31790 for biotransformation under microaerobic condition. The drug concentrations were measured over 7 timepoints collected between 0 and 12 hours of incubation by liquid-chromatography-coupled mass spectrometry (LC–MS)
# Type: ADME
# Parameters: dose 5 uM, timepoint 0, 0.75, 1.5, 3, 6, 9, 12 hours
# setup-conditions: 5 µM
reported-endpoint: Bacterial Biotransformation

CCCC1O[C@@H]2C[C@H]3[C@@H]4CCC5=CC(=O)C=C[C@]5(C)[C@H]4[C@@H](O)C[C@]3(C)[C@]2(C(=O)CO)O1 (some centres undefined) [BUDESONIDE] :: Compound NOT metabolized
C[C@]12CCC(=O)C=C1CC[C@@H]1[C@@H]2[C@@H](O)C[C@@]2(C)[C@H]1CC[C@]2(O)C(=O)CO [HYDROCORTISONE] :: Compound metabolized
C[C@@H](NCCCc1cccc(C(F)(F)F)c1)c1cccc2ccccc12 :: Compound NOT metabolized
CCOc1nc2cccc(C(=O)O)c2n1Cc1ccc(-c2ccccc2-c2nnn[nH]2)cc1 :: Compound NOT metabolized
COc1c(C)c2c(c(O)c1C/C=C(\C)CCC(=O)O)C(=O)OC2 :: Compound NOT metabolized
C[C@]12C=CC(=O)C=C1CC[C@@H]1[C@@H]2[C@@H](O)C[C@@]2(C)[C@H]1CC[C@]2(O)C(=O)CO :: Compound metabolized
CNC(=C[N+](=O)[O-])NCCSCc1ccc(CN(C)C)o1 :: Compound NOT metabolized
CO[C@H]1C[C@@H]2CC[C@@H](C)[C@@](O)(O2)C(=O)C(=O)N2CCCC[C@H]2C(=O)O[C@H]([C@H](C)C[C@@H]2CC[C@@H](O)[C@H](OC)C2)CC(=O)[C@H](C)/C=C(\C)[C@@H](O)[C@@H](OC)C(=O)[C@H](C)C[C@H](C)/C=C/C=C/C=C/1C :: Compound NOT metabolized
C[C@]12CCC(=O)C=C1CC[C@@H]1[C@@H]2C(=O)C[C@@]2(C)[C@H]1CC[C@]2(O)C(=O)CO :: Compound metabolized
C[C@@H]1C[C@H]2[C@@H]3CCC4=CC(=O)C=C[C@]4(C)[C@@]3(F)[C@@H](O)C[C@]2(C)[C@@]1(O)C(=O)CO :: Compound NOT metabolized
CCOC(=O)[C@H](CCc1ccccc1)N[C@@H](C)C(=O)N1[C@H](C(=O)O)C[C@@H]2CCC[C@@H]21 :: Compound NOT metabolized
C[C@H]1C[C@@H]2[C@H]([C@@H](O)C[C@@]3(C)[C@H]2CC[C@]3(O)C(=O)CO)[C@@]2(C)C=CC(=O)C=C12 :: Compound metabolized
Cn1cnc([N+](=O)[O-])c1Sc1ncnc2nc[nH]c12 :: Compound NOT metabolized
CN(Cc1cnc2nc(N)nc(N)c2n1)c1ccc(C(=O)N[C@@H](CCC(=O)O)C(=O)O)cc1 [METHOTREXATE] :: Compound NOT metabolized
